system: Hsp90; experiment: IC50 of compounds of the invention, Example B Method 2 (Tables 6-9); assay type: cell-based, human; settings: Table 7; Her2 degradation / inhibition of Hsp90; Method 2: MV-4-11 cells, 72 hours, Cell Counting Kit-8; read-out: IC50
Readout label: IC50 (nM)

(1) CC(C)c1cc(-c2nnc(NC(=O)c3ccco3)n2-c2ccc3c(ccn3C)c2)c(O)cc1O [Compound 15a]
(2) CC(C)c1cc(-c2nnc(NC(=O)COc3ccc(Cl)cc3)n2-c2ccc3c(ccn3C)c2)c(O)cc1O [Compound 19a]
input: Lab note: record which item had the higher IC50, 1 or 2 . // respond with label for picked entry
output: 2

###

tested on: Hsp90; assay: IC50 of compounds of the invention, Example B Method 2 (Tables 6-9); type: cell-based, human; settings: Table 8; Her2 degradation / inhibition of Hsp90; Method 2: MV-4-11 cells, 72 hours, Cell Counting Kit-8; read-out: IC50
Counter-ions that a name gives are not always drawn.
Readout label: IC50 (nM)

Compound: CC(N)C(=O)Oc1cc(OC(=O)C(C)N)c(C(C)C)cc1-c1nn(C(=O)C(C)N)c(=O)n1-c1ccc2c(ccn2C)c1 (stereo not shown) [Compound 16b, trihydrochloride]
IC50 (nM): 56
//
Compound: CC(C)c1cc(-c2nn(COC(=O)C(N)Cc3ccccc3)c(=O)n2-c2ccc3c(ccn3C)c2)c(O)cc1O (stereo not shown) [Compound 13b]
IC50 (nM): 27

(a) CC(C)c1cc(-c2nn(C(=O)C(N)Cc3ccccc3)c(=O)n2-c2ccc3c(ccn3C)c2)c(OC(=O)C(N)Cc2ccccc2)cc1OC(=O)C(N)Cc1ccccc1 (stereo not shown) [Compound 17b, trihydrochloride]
(b) CC(C)c1cc(-c2nn(C(=O)CN)c(=O)n2-c2ccc3c(ccn3C)c2)c(OC(=O)CN)cc1OC(=O)CN [Compound 15b, trihydrochloride]
(c) CC(C)c1cc(-c2nn(COC(=O)C(N)C(C)C)c(=O)n2-c2ccc3c(ccn3C)c2)c(O)cc1O (stereo not shown) [Compound 12b]
input: Arrange these compounds by their IC50, starting with the largest number. Output spec: a listing of the labels in the requested order.
output: b, a, c
(b: 79 nM, a: 46 nM, c: 29 nM)

(A) CC(C)c1cc(-c2nnc(SSc3nnc(-c4cc(C(C)C)c(O)cc4O)n3-c3ccc(N(C)C)cc3)n2-c2ccc(N(C)C)cc2)c(O)cc1O
(B) CC(=O)n1ccc2cc(-n3c(O)nnc3-c3cc(C(C)C)c(O)cc3O)ccc21
(C) COCCOc1ccc(-c2nnc(S)n2-c2cccc3ccccc23)c(O)c1
input: Order the records by IC50, with each subsequent value no larger than the one before. Return value: ordered labels per request.
output: C, A, B

###

system: Hsp90; test: IC50 of compounds of the invention, Example B Method 2 (Tables 6-9); assay type: cell-based, human; conditions: Table 7; Her2 degradation / inhibition of Hsp90; Method 2: MV-4-11 cells, 72 hours, Cell Counting Kit-8; read-out: IC50
pIC50: −log10 of the molar value.
Readout label: pIC50

Some molecules with known pIC50 results, for comparison:
Molecule: CC(C)c1cc(-c2nnc(Nc3ccc4ncccc4c3)n2-c2ccc3c(ccn3C)c2)c(O)cc1O
Recorded number: 6.17
//
Molecule: CC(C)c1cc(-c2nnc(Nc3cccc(N)c3)n2-c2ccc3c(ccn3C)c2)c(O)cc1O
Recorded number: 5.54
//
Molecule: COc1cccc(Nc2nnc(-c3cc(C(C)C)c(O)cc3O)n2-c2ccc3c(ccn3C)c2)c1
Recorded number: 5.74
//
Molecule: CC(C)c1cc(-c2nnc(Nc3ccccc3)n2-c2ccc3c(ccn3C)c2)c(O)cc1O
Recorded number: 5.85
//
Molecule: CC(C)c1cc(-c2nnc(NC(=O)c3ccccc3)n2-c2ccc3c(ccn3C)c2)c(O)cc1O
Recorded number: 5.59
//
Molecule: CC(C)c1cc(-c2nnc(NC(=O)Cc3ccccc3)n2-c2ccc3c(ccn3C)c2)c(O)cc1O [Compound 16a]
Recorded number: 5.84
//
Molecule: CC(=O)Nc1nnc(-c2cc(C(C)C)c(O)cc2O)n1-c1ccc2c(ccn2C)c1 [Compound 11a]
Recorded number: 6.42
//
Molecule: CC(C)c1cc(-c2nnc(NC(=O)C(F)(F)F)n2-c2ccc3c(ccn3C)c2)c(O)cc1O [Compound 18a]
Recorded number: 5.52

(1) CC(C)c1cc(-c2nnc(NC(=O)c3ccc(F)c(F)c3)n2-c2ccc3c(ccn3C)c2)c(O)cc1O [Compound 17a]
(2) CC(C)c1cc(-c2nnc(NCc3ccccc3)n2-c2ccc3c(ccn3C)c2)c(O)cc1O
(3) CC(C)c1cc(-c2nnc(NC(=O)C3CCCC3)n2-c2ccc3c(ccn3C)c2)c(O)cc1O [Compound 20a]
(4) CNc1nnc(-c2cc(C(C)C)c(O)cc2O)n1-c1ccc2c(ccn2C)c1
input: Hello, I need these entries ordered by pIC50, highest reading first. Thanks! Form entry: labels listed in requested order.
output: 1, 4, 3, 2

(1) CCCC(=O)Nc1nnc(-c2cc(C(C)C)c(O)cc2O)n1-c1ccc2c(ccn2C)c1 [Compound 12a]
(2) Cc1cc(C(=O)Nc2nnc(-c3cc(C(C)C)c(O)cc3O)n2-c2ccc3c(ccn3C)c2)no1 [Compound 10a]
input: Of the two listed items, 1 and 2 , which carries the larger pIC50 figure? Answer by quoting the chosen item's label.
output: 1
